Hello, the source for this data is the ASAP Discovery antiviral challenge data (2025), in case you need it.

For each record, check the reported logD: if it is below 3 write Yes, else write No.

Compound	Group
CC(C)(C)[C@H](Nc1ncnc2[nH]c(-c3cnn(CC(N)=O)c3)cc12)c1ccc2c(c1)OCCO2 (racemic)	No
CNC(=O)[C@H](Nc1cc(CN)cc(C(=O)O)c1)c1cc(Cl)cc(C2CC2)c1 (racemic)	Yes
O=C(/C=C/c1ccccc1)C(=O)N1CCN(CCc2ccccc2)CC1	No
CC(C)[C@H](Nc1ncnc2[nH]c(-c3cnn(C)c3C#N)cc12)c1ccc2c(n1)OCCO2 (racemic)	No

---

Measurement Conditions: mdck_mdr1

Molecule	Papp / ×10⁻⁶ cm/s
CCNC(=O)c1cc2c(N[C@H](c3ccc4c(c3)S(=O)(=O)NCC4)C(C)C)ncnc2[nH]1 (racemic)	1.96
CNC(=O)[C@H](Nc1cc(Cl)cc(NC(=O)OCc2ccccc2)c1)c1cccc(-c2nn[nH]n2)c1 (racemic)	1.39
Cn1ncc2c(C(=O)Nc3ccc4c(c3)CNC4)cc(Br)cc21	4.66
O=C(O)c1cc(Cl)ccc1NS(=O)(=O)c1ccc(-c2ccccc2Cl)cc1	7.59
O=C(Nc1cc(Cl)cc([C@H](Nc2cccc(-c3nn[nH]n3)c2)C(=O)NCc2ccccc2)c1)OCc1ccccc1 (racemic)	0.6
CN(c1ccc2c(c1)CNC2)[C@H](C(=O)NCC(F)F)c1cc(Cl)cc(C2CC2)c1 (racemic)	2.1
CC(C)[C@H](Nc1ncnc2[nH]ccc12)c1ccc2c(c1)S(=O)(=O)CCC2 (racemic)	3.3
CCOc1cccc(-c2ccc(S(=O)(=O)Nc3ccc(Cl)cc3C(=O)O)cc2)c1	6.22
O=C1Cc2c(cccc2C(=O)Nc2ccc3c(c2)CNC3)N1	0.924
NCc1cccc(NC(=O)c2cc(OCc3ccccc3)ccc2CNC(=O)OCc2ccccc2)c1	1.75
CNC(=O)[C@H](Nc1cccc(-c2nn[nH]n2)c1)c1cc(Cl)cc2[nH]ncc12 (racemic)	0.863
O=C(NCC(F)F)[C@H](Nc1ccc2c(c1)CNC2)c1cc(Br)cc2nc[nH]c12 (racemic)	0.5

---

Measurement Conditions: mdck_mdr1

Molecule	Papp
CNC(=O)[C@H](Nc1cc(CN)cc(C(=O)O)c1)c1cc(Cl)cc(C2CC2)c1 (racemic)	0.94 ×10⁻⁶ cm/s
CC(C)[C@H](Nc1ncnc2[nH]cc(C(=O)NC3CC3)c12)c1ccc2c(c1)S(=O)(=O)CCC2 (racemic)	2.46 ×10⁻⁶ cm/s
Cc1c(C(=O)Nc2cc([C@H]3CCOC3)ccn2)cc(C2CC2)n1C (racemic)	27.2 ×10⁻⁶ cm/s
O=C(Nc1ccc2c(c1)CNC2)c1cc(F)cc(-c2cn[nH]c2)c1	1.62 ×10⁻⁶ cm/s
O=C(Nc1cc(Cl)cc(C(=O)Nc2cccc(C3CCNCC3)c2)c1)OCc1ccccc1	1.8 ×10⁻⁶ cm/s
NCc1cccc([C@H]2C[C@@H]2c2cc(Cl)cc(NC(=O)OCc3ccccc3)c2)c1 (racemic)	1.66 ×10⁻⁶ cm/s
NCc1cccc(CNC(=O)[C@H](NC(=O)OCc2ccccc2)c2ccc(OCc3ccccc3)cc2)c1 (racemic)	1.44 ×10⁻⁶ cm/s
O=C(/C=C/c1ccccc1)C(=O)N1CCN(CCc2ccccc2)CC1	3 ×10⁻⁶ cm/s

---

Measurement Conditions: mouse; liver_microsomes
molecules and their reported log10 of microsomal CLint
Quantity Kind: log10 of microsomal CLint (log10 of the value in µL/min/mg)

Molecule	Recorded Measurement
CC(C)[C@H](Nc1ncnc2[nH]c(-c3cnn(C)c3C#N)cc12)c1ccc2c(n1)OCCO2 (racemic)	2.14
COCCNC(=O)[C@H](Nc1ccc2c(c1)CNC2)c1cc(Cl)cc(C2CC2)c1 (single isomer, unassigned)	1.07
O=C(Nc1cc2c(cc1C1CC1)CNC2)c1cc(F)cc2[nH]ncc12	1.94
CC(C)[C@H](CO)Nc1ncnc2[nH]ccc12	1.00
CC(C)(C)[C@H](Nc1ncnc2[nH]c(-c3cnn(CC(N)=O)c3)cc12)c1ccc2c(n1)OCCO2 (racemic)	1.49
CC(C)[C@H](Nc1ncnc2[nH]c(-c3cnn(CC(=O)N(C)C)c3)cc12)c1ccc2c(c1)OCCO2 (racemic)	1.77
Cn1c(=O)[nH]c2c(C(=O)Nc3ccc4c(c3)CNC4)cc(Br)cc21	1.10
O=C(Nc1ccc2c(c1)CNC2)c1cc(F)cc2[nH]ncc12	2.26
CC(C)[C@H](Nc1ncnc2[nH]c(-c3cnn(C)c3)cc12)c1ccc2c(c1)S(=O)(=O)NCC2 (racemic)	1.94
Cn1cc2c(C(=O)Nc3ccc4c(c3)CNC4)cc(F)cc2n1	1.26
COc1ccc([C@H](NC(=O)c2ncnc3[nH]ccc23)C(C)c2nnn[nH]2)cc1 (mixture of isomers)	0.00
COCCNC(=O)c1c[nH]c2ncnc(N[C@H](c3ccc4c(c3)S(=O)(=O)CCC4)C(C)C)c12 (racemic)	2.95
NCc1cccc(NC(=O)[C@@H](NC(=O)OCc2ccccc2)c2ccc(OCc3ccccc3)cc2)c1	0.00
CC(C)[C@H](Nc1ncnc2[nH]c(-c3cnn(C)c3C#N)cc12)c1ccc2c(c1)S(=O)(=O)CCC2 (racemic)	2.64
O=C(Nc1ccc2c(c1)CNC2)c1cccc2[nH]c(C(F)(F)F)cc12	1.10
O=C(Nc1ccc2c(c1)CNC2)c1cc(Br)cc2[nH]c(-c3ccccc3)nc12	1.64
N#Cc1cccc(-c2nc3c(C(=O)Nc4ccc5c(c4)CNC5)cc(F)cc3[nH]2)c1	1.34
CC(C)[C@H](Nc1ncnc2[nH]c(-c3cnn(C)c3)cc12)c1ccc2c(c1)S(=O)(=O)CCC2 (racemic)	2.19
CNC(=O)Cn1cc(-c2cc3c(N[C@H](c4ccc5c(c4)S(=O)(=O)CCC5)C(C)C)ncnc3[nH]2)cn1 (racemic)	1.89
CC(C)[C@H](Nc1ncnc2[nH]c(-c3cnn(C)c3C#N)cc12)c1ccc2c(c1)OCCO2 (racemic)	2.34
O=C(Nc1ccc2c(c1)CNC2)c1cc(F)cc2[nH]c(-c3ccc(F)cc3)nc12	1.57
CNC(=O)c1cc(Cl)ccc1NS(=O)(=O)c1ccc(Oc2ccccc2Cl)cc1	1.97
